- Assay remarks: TNF-a-driven NF-kB reporter inhibitors, primary screen, selectivity assay for NOD1/NOD2 signaling inhibitor project, cell-based, HEK293T NF-kB-Luc, luminescence (AID 1852)
- Test context: TNF-a induced, 14 h, at 4 µM, stronger effect = higher value
In all, about 2,500 compounds went through this assay and about 1,100 (44%) were called active. The set was probably picked from earlier hits. Some of the results follow.
Binary call on inhibition: 1 (yes) from 40% upward, 0 (no) beneath that.

Take a look at these entries with their results.
Cc1nn(-c2ccccc2)c(Cl)c1CN(C(=O)CCl)c1ccc(Cl)cc1
1 (yes)
COc1ccccc1N(C)S(=O)(=O)c1ccc(C(=O)Nc2ccc(N3CCOCC3)cc2)cc1
0 (no)
CCOC(=O)COc1ccc2ccccc2c1/C=C/[N+](=O)[O-]
0 (no)
O=C(N/N=C/c1cc(Cl)c(O)c(Cl)c1)c1cc2c(ccc3ccccc32)o1
1 (yes)
N#Cc1ccsc1NC(=O)c1cccc([N+](=O)[O-])c1
0 (no)

Task: Form field: inhibition at least 40%? Entry: Cc1sc(NC(=O)c2ccccc2)c(C(c2ccccn2)N2CCN(CCO)CC2)c1C (stereo unspecified)
Output: 1 (yes)

Task: Subsequent entry: NC(=S)Nc1cccc2cn[nH]c12
Output: 1 (yes)

Task: Subsequent entry: O=C(Nc1sc2c(c1C(=O)NCCCO)CCCC2)c1ccccc1
Output: 0 (no)
